Origin of values: PubChem BioAssay AID1845207

- Test system: NCI-H1876 tumor spheroid viability
- ASSAY NOTES: Anticancer human tumor NCI-H1876 cell line growth inhibition;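 note: spheroids exposed to compounds for seven days before the viability read; percent of DMSO vehicle control viability so 100% = vehicle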
- TEST CONDITIONS: second compound 0.003 µM; first compound 1 µM; stronger effect = lower value; spheroids with HUVEC and MSC
Form field: viability, T/C (one value per entry).
Quick note: give the figure in %, leave out the unit.

CC(C)n1c(=O)n(C)c2cnc3cc(F)c(-c4ccc(OCCCN5CCCCC5)nc4)cc3c21 + COc1cc2c(cc1O)CCNC21CSC2c3c(OC(C)=O)c(C)c4c(c3C(COC1=O)N1C(O)C3Cc5cc(C)c(OC)c(O)c5C(C21)N3C)OCO4 :: 0.77

Turning now to a further molecule:
The measured viability, T/C associated with COc1cc(C)[nH]c(=O)c1CN1CCc2c(Cl)cc(C(OC)C3COC3)c(Cl)c2C1=O (configuration not stated) + COc1cc2c(cc1O)CCNC21CSC2c3c(OC(C)=O)c(C)c4c(c3C(COC1=O)N1C(O)C3Cc5cc(C)c(OC)c(O)c5C(C21)N3C)OCO4 reads 0.57
